methodNotes: NCI Yeast Anticancer Drug Screen. Data for the rad50 strain (AID 155);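 further: 0% = growth of vehicle-only cultures of the same strain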
testContext: S. cerevisiae rad50 strain growth inhibition; at 50.0 µM; active compounds read high
The panel holds about 79,000 compounds, 15% with a hit somewhere; the sample as a whole holds those more often.
Group membership follows growth inhibition per the scheme low range = under 60%, mid range = from 60% up to 90%, high range = 90% and over

Problem: Class label required: Nc1ccc(Cc2ccc(Cl)cc2)cc1
Solution: high range

Problem: Class label required: O=Cc1cc(S(=O)(=O)c2ccc(O)c(C=O)c2)ccc1O
Solution: high range

Problem: Class label required: CC1CCN(CCC(=O)c2cccc(O)c2)CC1
Solution: low range

Problem: Class label required: NCCSC1(O)C(=O)c2ccccc2-c2ccccc21 (stereo not given)
Solution: high range

Problem: Class label required: Nc1nc2nn(-c3ccc(C(=O)O)cc3)nc2c(=O)[nH]1
Solution: low range

Problem: Class label required: Cc1ccc(C)c(N2C(=O)C(=O)C(c3nc4ccccc4o3)/C(=N\NC(=O)c3ccccc3O)C2=O)c1 (stereo not given)
Solution: mid range

Problem: Class label required: OC1(CCc2ccccc2)COC(C(F)(F)F)(C(F)(F)F)C1 (stereo not given)
Solution: mid range

Problem: Class label required: Cc1ccc(N=C=C(c2ccccc2)c2ccccc2)cc1
Solution: mid range

Problem: Class label required: O=C1C2=C(Nc3cc([N+](=O)[O-])ccc3N2)OC1c1c2ccccc2cc2ccccc12 (stereo not given)
Solution: high range

Problem: Class label required: CCOc1cc(/C=N/NC(=S)NC23CC4CC(CC(C4)C2)C3)ccc1O
Solution: low range

Problem: Class label required: O=S=C(c1ccccc1)N(Cc1ccccc1)Cc1ccccc1
Solution: high range

Problem: Class label required: COc1ccc(-c2c(C#N)c(-c3ccc(C)cc3)n(NS(=O)(=O)c3ccc(C)cc3)c(=O)c2C#N)cc1
Solution: mid range

Problem: Class label required: CCCCCC(CCCCC)C(=O)O
Solution: mid range

Problem: Class label required: O=C(O)c1ccc(/C=C2\COc3ccccc3C2=O)cc1
Solution: mid range

Problem: Class label required: Nc1ccc2ccccc2c1Cc1c(O)ccc2ccccc12
Solution: high range

Problem: Class label required: C[C@H](CCC(=O)O)[C@H]1CC[C@H]2[C@@H]3[C@@H](O)C[C@@H]4C[C@H](O)CC[C@]4(C)[C@H]3CC[C@]12C
Solution: mid range

Problem: Class label required: COc1cc(/C=C2/SC(=S)NC2=O)cc(OC)c1O
Solution: low range

Problem: Class label required: O=C1C=CC(=Nc2cc3c(cc2Br)-c2ccccc2C3Br)O1 (stereo not given)
Solution: low range

Problem: Class label required: CC(=O)OCc1ccc(O)c2ncccc12
Solution: high range

Problem: Class label required: Cc1cc(C)c(C(=O)/C=C/C(=O)c2ccccc2)c(C)c1
Solution: mid range

Problem: Class label required: Cc1ccsc1/C=N/Nc1ccc2ccccc2n1
Solution: mid range

Problem: Class label required: CSc1ccc2c(c1)S[S@@](=O)N2
Solution: low range

Problem: Class label required: COc1cc(NS(C)(=O)=O)ccc1Nc1c2ccccc2nc2ccccc12
Solution: mid range

Problem: Class label required: CCN(CC)CCN1C(=O)c2c(c3c4cccc(Cl)c4n(C4OC(CO)C(OC)C(O)C4O)c3c3[nH]c4c(Cl)cccc4c23)C1=O (stereo not given)
Solution: mid range

Problem: Class label required: Cc1cccc2cc3c(cc12)c(C)cc1ccccc13
Solution: mid range

Problem: Class label required: Cc1cc(I)cc(I)c1O
Solution: mid range

Problem: Class label required: CN(C)CC1Cc2ccsc2C1=O (stereo not given)
Solution: high range

Problem: Class label required: C[N+](C)(C)CCC(=O)c1ccco1
Solution: high range

Problem: Class label required: C(=N\Nc1ccc2ccccc2n1)/c1ccccn1.CC(=O)[O-].CC(=O)[O-].[Zn+2]
Solution: low range

Problem: Class label required: COc1cc(C2=N/C(=C\c3ccccc3O)C(=O)O2)cc(OC)c1OC
Solution: low range

Problem: Class label required: CCN(CC)CCOc1ccc(/C=C/c2ccccc2)cc1
Solution: mid range

Problem: Class label required: Cc1c2ccccc2c(C)c2c1ccc1ccccc12
Solution: high range

Problem: Class label required: O=C(O)CCSSCCCCCS(=O)O
Solution: low range

====

methodNotes: NCI Yeast Anticancer Drug Screen. Data for the rad50 strain (AID 155);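 further: 0% = growth of vehicle-only cultures of the same strain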
testContext: S. cerevisiae rad50 strain growth inhibition; at 50.0 µM
The panel holds about 79,000 compounds, 15% with a hit somewhere; the sample as a whole holds those more often. The source made the active and inactive calls. No stated cut-off is given here; in the data, active means growth inhibition above about 70%; inactive means the rest.
Pick from true (1) (active), false (0) (inactive) when you respond.

Problem: What did this assay record as the result for Cc1cc(SC#N)cc(C)c1O ?
Solution: true (1)

Problem: What did this assay record as the result for Cc1ccnc(NC(c2ccccc2)c2ccc3cccnc3c2O)c1 (centres undefined) ?
Solution: true (1)

Problem: What did this assay record as the result for Cc1cc(=O)oc2c(C)c3oc(CBr)cc3cc12 ?
Solution: false (0)

Problem: What did this assay record as the result for CC(C)CCCCCCCCCCCCC(=O)NCC(=O)NC1C(C)OC(Nc2ncnc3nc[nH]c23)C(O)C1O (centres undefined) ?
Solution: false (0)

====

methodNotes: NCI Yeast Anticancer Drug Screen. Data for the sgs1 mgt1 strain (AID 161);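 further: 0% = growth of cultures given vehicle only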
testContext: S. cerevisiae sgs1 mgt1 strain, at 50.0 µM, active compounds read high
This is part of a sample that, as a whole, favours compounds with a hit. Of some 79,000 tested, about 15% had one in any assay.
Please use satisfied whenever growth inhibition is not below 90%, and not satisfied whenever it is.

Problem: Is growth inhibition at least 90%? Consider C=CCC(O)C(=O)OC1CC(C)CCC1C(C)(C)c1ccccc1 (centres undefined)
Solution: satisfied

Problem: Is growth inhibition at least 90%? Consider CC(NNC(=S)N(C)C1CCCCC1)c1cc2ccccc2cn1 (centres undefined)
Solution: not satisfied

Problem: Is growth inhibition at least 90%? Consider C=C1CC(Cn2ccc(=O)[nH]c2=O)(c2ccc(Cl)cc2)OC1=O (centres undefined)
Solution: not satisfied

Problem: Is growth inhibition at least 90%? Consider CC(=O)N1CCC(Cc2ccccc2)CC1
Solution: not satisfied

Problem: Is growth inhibition at least 90%? Consider Cc1cccc(C)c1N1C(=O)C2Nc3ccccc3SC2C1=O (centres undefined)
Solution: satisfied

Problem: Is growth inhibition at least 90%? Consider CCOc1ccc2c(c1)nc1ccccc1[n+]2CC
Solution: not satisfied

Problem: Is growth inhibition at least 90%? Consider C/C(=N\NC(=S)N1CCN(Cc2ccccc2)CC1)c1ccccn1
Solution: not satisfied

====

methodNotes: NCI Yeast Anticancer Drug Screen. Data for the mec2-1 strain (AID 157)
testContext: S. cerevisiae mec2-1 strain, at 5.0 µM (retest, dose inferred, filed as 0.5), active compounds read high
Compounds without any hit were thinned out: in the full panel of roughly 79,000, 15% have a hit.
Field: growth inhibition. Provide a value for each of the compounds that follow.
Dear colleague, please return just the value in %, with no unit written.

Problem: Supply recorded growth inhibition for CS/C(N)=N/NC(=O)CCC(=O)Nc1cc(Cl)c(Cl)cc1Cl here.
Solution: 9

Problem: Supply recorded growth inhibition for O=C(O)/C(=C\c1ccc(F)cc1)c1ccccc1 here.
Solution: -18

Problem: Supply recorded growth inhibition for COC(=O)CCC(NC(=S)N/N=C/c1ccccn1)C(=O)OC (stereo not given) here.
Solution: -54

Problem: Supply recorded growth inhibition for Cc1cc(O)c2c(c1)C(=O)c1c(c(O)cc(O)c1-c1c(O)cc(O)c3c1C(=O)c1cc(C)cc(O)c1C3=O)C2=O here.
Solution: 29

Problem: Supply recorded growth inhibition for O=C(O)c1ccccc1Cc1ccc2c(c1)Cc1ccccc1-2 here.
Solution: -5

Problem: Supply recorded growth inhibition for O=C(CNC(=O)C(CSCc1ccccc1)NC(=O)OCc1ccccc1)Oc1c(Cl)c(Cl)c(Cl)c(Cl)c1Cl (stereo not given) here.
Solution: 8

Problem: Supply recorded growth inhibition for CC(=O)/C=C1\C(=O)Nc2ccccc21 here.
Solution: 10

Problem: Supply recorded growth inhibition for COc1cccc(C2c3cc4c(cc3OC(Nc3ccccc3)C2C)OCO4)c1O (stereo not given) here.
Solution: -8

Problem: Supply recorded growth inhibition for O=[N+]([O-])c1ccc(C2=CSc3ccccc3N2)cc1 here.
Solution: -30

Problem: Supply recorded growth inhibition for O=C1CCCc2cc3c(nc21)C(=O)CCC3 here.
Solution: -11

Problem: Supply recorded growth inhibition for CCCCC(CCc1ccccc1)(C(=O)O)c1ccccc1 (stereo not given) here.
Solution: 87

Problem: Supply recorded growth inhibition for Cc1ccc(O)c(C(c2cccc(C(c3cc(C)ccc3O)c3cc(C)ccc3O)c2)c2cc(C)ccc2O)c1 here.
Solution: 54

Problem: Supply recorded growth inhibition for COc1ccc2c(c1OC)C(C(Cl)(Cl)Cl)N1CCc3cc4c(cc3C1=C2)OCO4 (stereo not given) here.
Solution: 7

Problem: Supply recorded growth inhibition for CCCCOP(=O)(OCCCC)C(NS(=O)(=O)c1ccccc1)(C(=O)OCC)C(F)(F)F (stereo not given) here.
Solution: 7

Problem: Supply recorded growth inhibition for CCC1(C)CCC2(C)C(CCC3C4(C)CCCC32OC4=O)C1 (stereo not given) here.
Solution: -2
